Test system: wheat
EXPERIMENTAL_DETAILS: Test A postemergence
Assay type: in vivo, Triticum aestivum
CONDITIONS: 125 g ai/ha, postemergence, 10 days, visual injury, 0 to 100 scale (0 no effect, 100 complete control)
Could you mark each record rule met if its Plant response rating, Wheat falls strictly under 10, and rule not met if it equals or exceeds it?

| MOLECULE | TARGET_ENTITY | ASSIGNED_CATEGORY |
| --- | --- | --- |
| Cc1ccc(-n2cncn2)cc1C(=O)N1C[C@H](C)Oc2c(C)cccc21 | wheat | rule not met |
| Cc1cccc2c1O[C@@H](C)CN2C(=O)c1ccc(F)c(-n2cncn2)c1 | wheat | rule not met |
| Cc1cccc2c1O[C@@H](C)CN2C(=O)c1cc(-n2cncn2)ccc1F | wheat | rule not met |
| Cc1cccc2c1O[C@@H](C)CN2C(=O)c1cccc(-n2cnc(C3CC3)n2)c1 | wheat | rule not met |
| CC1CN(C(=O)c2cccc(-n3cncn3)c2)c2cccc(C3CC3)c2O1 (centres unmarked) | wheat | rule met |

====

Form field: Plant response rating, Ryegrass, Italian (one value per entry).
Tested on: ryegrass, Italian
EXPERIMENTAL_DETAILS: Test C preemergence
Type: in vivo, Lolium multiflorum
CONDITIONS: Preemergence, 1000 g ai/ha; visual rating after 10 days, 0 to 100 scale (0 no effect, 100 complete control)
From the text: […]

| ENTRY_SMILES | Plant response rating, Ryegrass, Italian |
| --- | --- |
| C[C@H]1CN(C(=O)c2cccc(-c3ccncn3)c2)c2cccc(Cl)c2O1 | 20 |
| Cc1cc(-c2cccc(C(=O)N3C[C@H](C)Oc4c(C)cccc43)c2)cs1 | 30 |
| C[C@H]1CN(C(=O)c2cccc(-c3ccc(Cl)nc3)c2)c2cccc(Cl)c2O1 | 0 |
| C[C@H]1CN(C(=O)c2cccc(-c3ccn(C)n3)c2)c2cccc(Cl)c2O1 | 40 |
| Cc1cnc(-c2cccc(C(=O)N3C[C@H](C)Oc4c(C)cccc43)c2)cn1 | 70 |
| Cc1ncc(-c2cccc(C(=O)N3C[C@H](C)Oc4c(C)cccc43)c2)cn1 | 80 |
| Cc1cc(-c2cccc(C(=O)N3C[C@H](C)Oc4c(C)cccc43)c2)ccn1 | 20 |
| Cc1cccc2c1O[C@@H](C)CN2C(=O)c1cccc(-n2cncc2C#N)c1 | 70 |
| C[C@H]1CN(C(=O)c2cccc(-n3ccnn3)c2)c2cccc(Cl)c2O1 | 30 |
| Cc1ccc(-c2cccc(C(=O)N3C[C@H](C)Oc4c(Cl)cccc43)c2)o1 | 40 |
| Cc1cccc2c1O[C@@H](C)CN2C(=O)c1cccc(-n2cncc2Br)c1 | 0 |
| CC1(C)CN(C(=O)c2ccnc(-n3cncn3)c2)c2ccccc2O1 | 0 |
| Cc1nccc(-c2cccc(C(=O)N3C[C@H](C)Oc4c(C)cccc43)c2)n1 | 90 |

====

System: corn
EXPERIMENTAL_DETAILS: Test A preemergence
Type: in vivo, Zea mays
CONDITIONS: 125 g ai/ha, visual injury after 10 days, 0 to 100 scale, 0 is no effect, 100 is complete control

| COMPOUND | Plant response rating, Corn |
| --- | --- |
| CCc1cccc2c1OC(C)CN2C(=O)c1cccc(-n2cncn2)c1 (centres unmarked) | 10 |
| CCc1ncn(-c2ccc(C)c(C(=O)N3C[C@H](C)Oc4c(Cl)cccc43)c2)n1 | 40 |
| C[C@H]1CN(C(=O)c2cccc(-n3cncn3)c2)c2cccc(C(F)(F)F)c2O1 | 0 |
| C[C@H]1CN(C(=O)c2cccc(-n3cncn3)c2)c2cccc(C#N)c2O1 | 0 |
| CCc1ncn(-c2ccc(CC)c(C(=O)N3C[C@H](C)Oc4c(Cl)cccc43)c2)n1 | 60 |

====

Test system: soybean
EXPERIMENTAL_DETAILS: Test C postemergence
Assay type: in vivo, Glycine max
CONDITIONS: Postemergence, 125 g ai/ha; 0 to 100 scale (0 no effect, 100 complete control), 10 days
RECORDED_ENDPOINT: Plant response rating, Soybean

| COMPOUND | NUMERIC_RESULT |
| --- | --- |
| COc1ccc(-n2cnc(C3CC3)n2)cc1C(=O)N1C[C@H](C)Oc2c(Cl)cccc21 | 100 |
| CCOC[C@H]1CN(C(=O)c2cc(-n3cnc(C4CCC4)n3)cc3c2OCO3)c2cccc(Cl)c2O1 | 0 |
| CC(C)c1ncn(-c2cccc(C(=O)N3CC(C(F)(F)F)Oc4c(Cl)cccc43)c2)n1 (centres unmarked) | 100 |
| Cc1ncnn1-c1cc(C(=O)N2CC(C(F)(F)F)Oc3c(Cl)cccc32)ccn1 (racemic) | 50 |
| CC(C)c1ncn(-c2cc(C(=O)N3CC(C(F)(F)F)Oc4c(Cl)cccc43)ccn2)n1 (racemic) [Compound 329] | 100 |
| CCOCC1CN(C(=O)c2cc(-n3cnc(C(C)(C)C)n3)ccc2OC)c2cccc(Cl)c2O1 (centres unmarked) | 100 |
| C[C@H]1CN(C(=O)c2cccc(-n3cnc(C4CC4)n3)c2)c2cccc(Cl)c2O1 | 100 |
| CCc1ncn(-c2cccc(C(=O)N3CC(C(F)(F)F)Oc4c(Cl)cccc43)c2)n1 (centres unmarked) | 100 |

====

Form field: pest or weed control at 500 g/ha (one value per entry).
System: ryegrass, Italian
EXPERIMENTAL_DETAILS: Test A preemergence
Format: in vivo, Lolium multiflorum
CONDITIONS: Lolium multiflorum, pre-emergence, 240 h, 500 g ai/ha, 0 to 100 scale (0 no effect, 100 complete control), 10 days, read-out: Plant response rating, Ryegrass, Italian
Excerpt: […]

| ENTRY_SMILES | UNIT_OF_MEASUREMENT | pest or weed control at 500 g/ha |
| --- | --- | --- |
| CCc1ccc(-n2cnc(C(C)C)n2)cc1C(=O)N1C[C@H](C)Oc2c(Cl)cccc21 | % | 100 |
| Cc1ccc(-n2cnc(C3CCC3)n2)cc1C(=O)N1C[C@H](C)Oc2c(Cl)cccc21 | % | 100 |
| COCc1ncn(-c2cccc(C(=O)N3C[C@H](C)Oc4c(C)cccc43)c2)n1 | % | 90 |
| Cc1ccc(-n2cnc(C(C)(C)C)n2)cc1C(=O)N1C[C@H](C)Oc2c(Cl)cccc21 | % | 100 |

====

Form field: pest or weed control at 125 g/ha (one value per entry).
Tested on: pigweed, palmer
EXPERIMENTAL_DETAILS: Test A postemergence
Format: in vivo, Amaranthus palmeri
CONDITIONS: Amaranthus palmeri, post-emergence, 240 h, 125 g ai/ha, postemergence, 10 days, 0 to 100 scale (0 no effect, 100 complete control); read-out: Pigweed, Palmer plant response rating

| MOLECULE | UNIT_OF_MEASUREMENT | pest or weed control at 125 g/ha |
| --- | --- | --- |
| Cc1cccc2c1O[C@@H](C)CN2C(=O)c1cccc(-n2cn[nH]c2=O)c1 | % | 20 |
| Cc1cccc2c1O[C@@H](C)CN2C(=O)c1cccc(-n2cnn(C)c2=O)c1 | % | 10 |
| COCc1ncn(-c2cccc(C(=O)N3C[C@H](C)Oc4c(C)cccc43)c2)n1 | % | 50 |
| Cc1ccc(-n2ncnc2C)cc1C(=O)N1C[C@H](C)Oc2c(Cl)cccc21 (single isomer, unassigned) | % | 0 |

====

Form field: Plant response rating, Ryegrass, Italian (one value per entry).
Test system: ryegrass, Italian
EXPERIMENTAL_DETAILS: Test C postemergence
Assay type: in vivo, Lolium multiflorum
CONDITIONS: 125 g ai/ha, postemergence, 10 days; 0 to 100 scale, 0 no effect, 100 complete control
RECORDED_ENDPOINT: Plant response rating, Ryegrass, Italian

| COMPOUND | TARGET_ENTITY | RECORDED_ENDPOINT | RESULT |
| --- | --- | --- | --- |
| Cc1ccc(-n2cnc(C3(C(F)(F)F)CCC3)n2)cc1C(=O)N1C[C@H](C)Oc2c(Cl)cccc21 | ryegrass, Italian | Plant response rating, Ryegrass, Italian | 20 |
| Cc1cc(-n2cnc(C(C)C)n2)cc(C(=O)N2C[C@H](C)Oc3c(Cl)cccc32)c1F | ryegrass, Italian | Plant response rating, Ryegrass, Italian | 50 |
| COC[C@H]1CN(C(=O)c2cc(-n3cnc(C4CCC4)n3)ccc2C)c2cccc(Cl)c2O1 | ryegrass, Italian | Plant response rating, Ryegrass, Italian | 60 |
| C[C@H]1CN(C(=O)c2cc(-n3cnc(C4CC4)n3)cc3c2OCCO3)c2cccc(Cl)c2O1 | ryegrass, Italian | Plant response rating, Ryegrass, Italian | 50 |
| Cc1c(F)cc(-n2cnc(C(C)C)n2)cc1C(=O)N1C[C@H](C)Oc2c(Cl)cccc21 | ryegrass, Italian | Plant response rating, Ryegrass, Italian | 60 |
| C[C@H]1CN(C(=O)c2cc(-n3cnc(C(C)(C)C)n3)cc3c2OCCO3)c2cccc(Cl)c2O1 | ryegrass, Italian | Plant response rating, Ryegrass, Italian | 30 |
| Cc1ccc(-n2cnc(C[S+](C)[O-])n2)cc1C(=O)N1C[C@H](C)Oc2c(Cl)cccc21 (stereo partly shown) | ryegrass, Italian | Plant response rating, Ryegrass, Italian | 50 |

Data provenance is patent US20260262643A1.
